Listed compounds paired with reported growth
- System: NCI/ADR-RES ovarian
- ASSAY COMMENT: NCI-60 one-dose screen, 48 h (100 = growth as untreated, 0 = no growth, -100 = all killed)
- DETAILS: 10 µM unless noted
The panel holds about 83,000 compounds, 20% with a hit somewhere; the sample as a whole holds those more often.
Output spec: scalar in %, unitless text.

Cc1cc(C)cc(Nc2nc3c(s2)CC[C@@]2(C)C3=CC[C@@H]3[C@@H]2CC[C@]2(C)C(=O)CC[C@@H]32)c1	74.5

Req: What value of measured growth is listed for COc1cc(/C=N/C2=C(C#N)C(c3ccco3)c3c(c4cc(C)ccc4oc3=O)O2)cc(OC)c1OC (centres undefined) ?
Resp: 96.3

Req: What value of measured growth is listed for Fc1c[c-]c(-c2ccccn2)c(F)c1.[CH3-].[Pt+2].c1ccc([PH+](c2ccccc2)c2ccccn2)cc1 ?
Resp: 32.1

Req: What value of measured growth is listed for Oc1ccc2c3c1OC1[C@@H](O)CC[C@@]4(O)[C@@H](C2)N(CC2CCC2)CC[C@]314 (some centres undefined) ?
Resp: 102

Req: What value of measured growth is listed for [Cl][Hg][c]1cc[c]([Hg][Cl])o1 ?
Resp: 69.3

Req: What value of measured growth is listed for O=[As](O)(O)c1ccccc1[As](=O)(O)O ?
Resp: 104

Req: What value of measured growth is listed for CN1C(=O)N[C@H]2[C@@H]3NC(=O)c4ccc(Br)n4[C@@H]3C[C@]21O ?
Resp: 48.6

----------
- Tested on: LOX IMVI melanoma
- ASSAY COMMENT: NCI-60 one-dose screen, 48 h
- DETAILS: 10 µM unless noted
This is part of a sample that, as a whole, favours compounds with a hit. Of some 83,000 tested, about 20% had one in any assay. Calls of active or inactive are those of the source. Rule for the calls: active = growth percent below 10; inactive = the rest.
Parameter call: string, one of active, inactive

Worked cases, answers included:
O=C(N/N=C\c1ccc(N(CCCl)CCCl)cc1)c1cccc([N+](=O)[O-])c1	inactive
Nc1ccc(OCCNS(=O)(=O)c2cccc(S(=O)(=O)F)c2)c(Cl)c1	inactive
COc1cc(/C=C/[N+](=O)[O-])cc(OC)c1	active
COc1cc2c(cc1OCc1ccccc1)C(CC(C)C)=[N+](C)CC2	inactive
C[n+]1c(/C=C/c2ccc(N(CCCl)CCCl)cc2)sc2ccccc21	inactive
O=Cc1cn(Cc2ccc(Cl)cc2)c2ccccc12	inactive

Req: Could you check what this test reported for C#Cc1ccc2c(c1)C(c1ccccc1)=NCC(=O)N2C ?
Resp: inactive

Req: Could you check what this test reported for O=C1CCC2(O)[C@@H]3Cc4ccc(O)c5c4[C@]2(CCN3Cc2ccoc2)C1O5 (stereo partly drawn) ?
Resp: inactive

Req: Could you check what this test reported for CC(C)COC(C[N+](=O)[O-])C(Cl)(Cl)Cl (stereo not drawn) ?
Resp: inactive

Req: Could you check what this test reported for O[C@H](CN1CC1)[C@@H](O)CN1CC1 ?
Resp: inactive

Req: Could you check what this test reported for O=C1CN=C(c2ccc(Cl)cc2)c2sccc2N1 ?
Resp: inactive

Req: Could you check what this test reported for CC1(C)N=C(N)N=C(N)N1c1ccc(CCC(=O)Nc2ccc(S(=O)(=O)F)cc2)c(Cl)c1 ?
Resp: inactive

Req: Could you check what this test reported for CC(C)(N)Cc1ccccc1 ?
Resp: inactive

Req: Could you check what this test reported for C[N+]12CN3CN(CN(C3)C1)C2 ?
Resp: inactive

----------
Listed compounds paired with reported growth
- Test system: A549/ATCC NSCLC
- ASSAY COMMENT: NCI-60 one-dose screen, 48 h (100 = growth as untreated, 0 = no growth, -100 = all killed)
- DETAILS: 10 µM unless noted
About 83,000 compounds went through this panel and 20% of them were active in at least one assay; those are over-represented in the sample as a whole.
Output spec: scalar in %, unitless text.

CNC(=O)Oc1ccc2c(c1)OCO2	100

Req: Please state recorded growth (tested on A549/ATCC NSCLC) of NC1CC2CCCCC2CC1(O)c1ccccc1 (stereo unspecified)
Resp: 99.3

Req: Please state recorded growth (tested on A549/ATCC NSCLC) of CC(C)OC(=O)[C@H](C)NP(=O)(Oc1ccccc1)C1CCCN(O)C1=O (stereo partly specified)
Resp: 105

Req: Please state recorded growth (tested on A549/ATCC NSCLC) of CN1C(=O)C(=Cc2cn(Cc3ccccc3)c3ccccc23)C(=O)N(C)C1=O
Resp: 81.7

Req: Please state recorded growth (tested on A549/ATCC NSCLC) of C/C=C(\C)C(=O)O[C@@H]1C(O)[C@H]2OC(COC(=O)CCC(=O)CCCCCC[C@H](CCCCC)O[C@@H]3OC(C)[C@H](OC(C)=O)C(O)[C@H]3O2)[C@H]1OC(=O)/C=C/c1ccccc1 (stereo partly specified)
Resp: 20.2

Req: Please state recorded growth (tested on A549/ATCC NSCLC) of C[C@@]1(CCCCCCCCCc2ccc(O)cc2)C[C@]2(C)OC(=O)C[C@@H]2OO1
Resp: 99.4

Req: Please state recorded growth (tested on A549/ATCC NSCLC) of COc1ccc(C(O)(C(=O)O)c2ccc(OC)cc2)cc1
Resp: 71.6

Req: Please state recorded growth (tested on A549/ATCC NSCLC) of COC1=CC(=O)O[C@@H](/C=C/c2ccc3c(c2)OCO3)C1
Resp: 97

Req: Please state recorded growth (tested on A549/ATCC NSCLC) of COc1ccc(/C=C\c2cc(OC)c(OC)c(OC)c2)cc1OCC(=O)Nc1nc2ccc(F)cc2s1
Resp: 31

Req: Please state recorded growth (tested on A549/ATCC NSCLC) of C=CC[PH+](c1ccccc1)c1ccccc1.C=CC[PH+](c1ccccc1)c1ccccc1.[Cl][Pt][Cl]
Resp: 88.2

Req: Please state recorded growth (tested on A549/ATCC NSCLC) of CC[C@H](C)[C@@H]1OC(=O)C(C)(C)[C@H](O)[C@H](Cc2ccccc2)OC(=O)[C@H](C(C)C)OC(=O)[C@@H](NC(=O)c2cccc(NC=O)c2O)[C@@H](C)OC1=O
Resp: 49.5

Req: Please state recorded growth (tested on A549/ATCC NSCLC) of [Au+].[N-]=C=O.c1ccc(CN2[CH-]N(Cc3ccccc3)C(c3ccccc3)=C2c2ccccc2)cc1
Resp: 92.7

Req: Please state recorded growth (tested on A549/ATCC NSCLC) of CCCCCCCCCCCCCCCCCC1OC[C@H](COC(=O)O[C@@H](C(=O)O[C@H]2C[C@@]3(O)[C@@H](OC(=O)c4ccccc4)[C@@H]4[C@]5(OC(C)=O)CO[C@@H]5C[C@H](O)[C@@]4(C)C(=O)[C@H](OC(C)=O)C(=C2C)C3(C)C)[C@@H](NC(=O)c2ccccc2)c2ccccc2)O1 (stereo partly specified)
Resp: 43.9

Req: Please state recorded growth (tested on A549/ATCC NSCLC) of Fc1cccc(NCOOC2(OOCNc3cccc(F)c3)CCCCC2)c1
Resp: 89.6

Req: Please state recorded growth (tested on A549/ATCC NSCLC) of Oc1ccc2c3c1OC1[C@@H](O)CC[C@@]4(O)[C@@H](C2)N(CC2CCC2)CC[C@]314 (stereo partly specified)
Resp: 98.9

----------
- Test system: U251 CNS
- ASSAY COMMENT: NCI-60 one-dose screen, 48 h (100 = growth as untreated, 0 = no growth, -100 = all killed)
- DETAILS: 10 µM unless noted
The panel holds about 83,000 compounds, 20% with a hit somewhere; the sample as a whole holds those more often.
Label 1.0 for high-side growth (at or above 20%) and 0.0 for low-side growth (below it).

Worked cases, answers included:
CN1CCCCC1C(C)(O)c1ccccc1 (stereo not given)	1.0
C=C1C(=O)O[C@H]2[C@H]1CC/C(COC(=O)C(=O)c1cn(Cc3ccccc3)c3ccccc13)=C\CC[C@@]1(C)O[C@@H]21	0.0
COC(=O)[C@@H](C)C[C@H](Cc1ccccc1)NC(=O)c1csc([C@@H](C[C@H](C(C)C)N(C)C(=O)[C@@H](NC(=O)[C@H]2CCCCN2C)C(C)C)OC(C)=O)n1	0.0
CCn1c2ccccc2c2cc(C(=O)c3cccc4c3CCCN4)ccc21	1.0

Req: API: above_or_equal(metric=growth, cutoff=20%) for item C[C@]12CCc3sc(NCCc4ccccc4)nc3C1=CC[C@@H]1[C@@H]2CC[C@]2(C)C(=O)CC[C@@H]12
Resp: 1.0

Req: API: above_or_equal(metric=growth, cutoff=20%) for item CNC(=O)Oc1cccc(C(F)(F)F)c1
Resp: 1.0

----------
Listed compounds paired with reported growth
- System: SN12C renal
- ASSAY COMMENT: NCI-60 one-dose screen, 48 h (100 = growth as untreated, 0 = no growth, -100 = all killed)
- DETAILS: 10 µM unless noted
Compounds without any hit were thinned out: in the full panel of roughly 83,000, 20% have a hit.
Output spec: scalar in %, unitless text.

Past entries and their recorded results:
CCOC(=O)N[C@H]1CCc2c(Br)c(OC)c(OC)c(OC)c2-c2ccc(SC)c(=O)cc21	24.3
CC[C@H](C)[C@H](NC(=O)[C@H]1CCCCN1C)C(=O)N(C)[C@H](C[C@@H](OC(C)=O)c1nc(C(=O)NC23CC(C(=O)OC)(C2)C3)cs1)C(C)C	32.7
COc1ccc(/C(C)=C(\c2ccc(OCCN3CCOCC3)cc2)c2ccc(OC(=O)Cc3ccccc3)cc2)cc1	107

We next turn to a different compound, shown below.
Req: What value of measured growth is listed for COC(=O)[C@@H](C)C[C@H](Cc1ccccc1)NC(=O)c1csc([C@@H](C[C@H](C(C)C)N(C)C(=O)C2(NC(=O)[C@H]3CCCCN3C)CCC2)OC(C)=O)n1 ?
Resp: 29.8
